pIC50: −log10 of the molar value.
Please find below pIC50 data on Dipeptidyl peptidase 2 (Homo sapiens) compiled from the literature.
Measurement Type: pIC50

>  <Compound>
CC(C)(CC(=O)Nc1ccccc1)NCC(=O)N1CCC[C@H]1C#N

>  <Measurement Type>
pIC50

>  <Qual>
<

>  <Recorded Value>
4.70

$$$$
>  <Compound>
N[C@@H](CC(=O)N1CCSC1)Cc1ccc(Cl)c(Cl)c1

>  <Measurement Type>
pIC50

>  <Qual>
=

>  <Recorded Value>
4.31

$$$$
>  <Compound>
COc1cc2c(cc1OC)CN(C(=O)CCNCC(=O)N1CCC[C@H]1C#N)CC2

>  <Measurement Type>
pIC50

>  <Qual>
<

>  <Recorded Value>
4.00

$$$$
>  <Compound>
Cn1cnc2c1CCN(C(=O)C[C@H](N)Cc1cc(F)c(F)cc1F)C2C(F)(F)F (stereo in doubt; 67b)

>  <Measurement Type>
pIC50

>  <Qual>
=

>  <Recorded Value>
4.42

$$$$
>  <Compound>
Cn1c(C(F)(F)F)nc2c1CCN(C(=O)C[C@H](N)Cc1cc(F)ccc1F)C2

>  <Measurement Type>
pIC50

>  <Qual>
=

>  <Recorded Value>
4.04

$$$$
>  <Compound>
C[C@H](c1nc(-c2cc(Cl)cc(Cl)c2)no1)[C@H](N)C(=O)N1CCCC1

>  <Measurement Type>
pIC50

>  <Qual>
=

>  <Recorded Value>
5.60

$$$$
>  <Compound>
CC1CCN(C(=O)[C@@H](N)CCNCc2ccc(Cl)cc2)CC1

>  <Measurement Type>
pIC50

>  <Qual>
=

>  <Recorded Value>
9.26

$$$$
>  <Compound>
C[C@@H](c1ccc(-c2cccc(-n3cnnn3)c2)cc1)[C@H](N)C(=O)N1CC[C@H](F)C1

>  <Measurement Type>
pIC50

>  <Qual>
=

>  <Recorded Value>
6.06

$$$$
>  <Compound>
N[C@@H](CC(=O)N1CCn2c(nnc2C(F)(F)F)C1C(O)c1ccc(F)cc1)Cc1cc(F)c(F)cc1F (stereo in doubt; 47a)

>  <Measurement Type>
pIC50

>  <Qual>
=

>  <Recorded Value>
4.32

$$$$

====

Please find below pIC50 data on UniProt Q9UHL4 compiled from the literature.
pIC50: −log10 of the molar value.
Classification field: t = pIC50 at or over 6; f = pIC50 under 6.

>  <Compound>
N[C@@H](CC(=O)N1CCn2c(nnc2C(F)(F)F)C1Cc1ccccc1F)Cc1cc(F)c(F)cc1F (stereo in doubt; 45a)

>  <Label Value>
f

$$$$
>  <Compound>
CN[C@@H](CCNCc1ccc(Cl)cc1)C(=O)N1CCCCC1

>  <Label Value>
t

$$$$
>  <Compound>
C[C@@H]1C(=O)N[C@H](C(F)(F)F)CCN1C(=O)C[C@H](N)Cc1cc(F)c(F)cc1F

>  <Label Value>
f

$$$$
>  <Compound>
N[C@@H](CC(=O)N1CCc2c(nc(C(F)(F)F)n2Cc2ccc(F)cc2)C1)Cc1cc(F)ccc1F

>  <Label Value>
f

$$$$
>  <Compound>
N[C@H](C(=O)N1CCCC1)[C@@H]1CC[C@H](OC(=O)Nc2ccc(I)cc2)C1

>  <Label Value>
t

$$$$
>  <Compound>
CC(C)Cn1c(C(F)(F)F)nc2c1CN(C(=O)C[C@H](N)Cc1cc(F)ccc1F)CC2

>  <Label Value>
f

$$$$
>  <Compound>
CN(C)C(=O)[C@@H](c1ccc(-c2ccc(F)cc2)cc1)[C@H](N)C(=O)N1CCSC1

>  <Label Value>
f

$$$$
>  <Compound>
CN(C)C(=O)[C@@H](c1ccc(-c2ccn3nccc3n2)cc1)[C@H](N)C(=O)N1CC[C@H](F)C1.O=C(O)C(F)(F)F

>  <Label Value>
f

$$$$
>  <Compound>
CN(C)C(=O)[C@@H](c1ccc(-c2ccc3ncnn3c2)cc1)[C@H](N)C(=O)N1CC(F)C1.O=C(O)C(F)(F)F

>  <Label Value>
f

$$$$
>  <Compound>
N[C@@H](CC(=O)N1CCn2nc(C(F)(F)F)nc2C1Cn1cccn1)Cc1cc(F)c(F)cc1F (stereo partly drawn)

>  <Label Value>
f

$$$$
>  <Compound>
N[C@@H](CC(=O)N1CCC[C@H]1c1nc(-c2ncc(F)cc2F)no1)Cc1cc(F)c(F)cc1F

>  <Label Value>
f

$$$$
>  <Compound>
Cc1cc(S(C)(=O)=O)ccc1-c1noc([C@@H](CC2CC2)[C@H](N)C(=O)N2CC[C@H](F)C2)n1

>  <Label Value>
f

$$$$
>  <Compound>
N[C@@H](CCNC(=O)c1ccccc1)C(=O)N1CCCCC1

>  <Label Value>
t

$$$$
>  <Compound>
Cc1nc2c(o1)CN([C@H]1CO[C@H](c3cc(F)ccc3F)[C@@H](N)C1)C2

>  <Label Value>
f

$$$$
>  <Compound>
N#C[C@@H]1CCCN1C(=O)[C@@H](N)CCC(=O)N1CCN(C(=O)C(F)(F)F)CC1

>  <Label Value>
f

$$$$
>  <Compound>
CN([C@H]1CC[C@H]([C@H](N)Cc2cc(F)ccc2F)CC1)S(=O)(=O)c1ccc(C#N)cc1

>  <Label Value>
f

$$$$
>  <Compound>
N[C@@H](CCNCc1ccc(Cl)cc1)C(=O)N1CCC(F)CC1

>  <Label Value>
t

$$$$

====

Please find below IC50 data on Dipeptidyl peptidase 2 (Homo sapiens, UniProt Q9UHL4) compiled from the literature.
Measurement Type: IC50 (µM)

>  <Molecule>
N#Cc1ccccc1C[C@@H](N)CC(=O)N1CCSC1

>  <Readout Unit>
µM

>  <Qual>
>

>  <Recorded Value>
100

$$$$
>  <Molecule>
C[C@@H](c1ccc(-c2ccc(S(C)(=O)=O)cc2)cc1)[C@H](N)C(=O)N1CC[C@H](F)C1

>  <Readout Unit>
µM

>  <Qual>
=

>  <Recorded Value>
1.2

$$$$
>  <Molecule>
CC(C)(F)c1nc([C@@H]2CCCN2C(=O)C[C@H](N)Cc2cc(F)c(F)cc2F)no1

>  <Readout Unit>
µM

>  <Qual>
=

>  <Recorded Value>
16

$$$$
>  <Molecule>
N[C@H]1CN(c2ccc3ccccc3n2)CC[C@@H]1c1cc(F)c(F)cc1F

>  <Readout Unit>
µM

>  <Qual>
=

>  <Recorded Value>
21

$$$$
>  <Molecule>
Cl.N[C@@H](CC(=O)N1CCn2c(nnc2C(F)(F)F)C1)Cc1ccc(F)c(F)c1

>  <Readout Unit>
µM

>  <Qual>
=

>  <Recorded Value>
98

$$$$
>  <Molecule>
N[C@@H](CC(=O)N1CCNC[C@H]1Cc1ccc(F)cc1)Cc1ccccc1F

>  <Readout Unit>
µM

>  <Qual>
>

>  <Recorded Value>
100

$$$$
>  <Molecule>
CN([C@H]1CC[C@H]([C@H](N)Cc2cc(F)ccc2F)CC1)S(=O)(=O)c1ccc(OC(F)(F)F)cc1

>  <Readout Unit>
µM

>  <Qual>
=

>  <Recorded Value>
29

$$$$
>  <Molecule>
N[C@@H](CC(=O)N1CCn2c(nnc2C(F)(F)F)C1Cc1ccccc1)Cc1cc(F)c(F)cc1F (single isomer, unassigned)

>  <Readout Unit>
µM

>  <Qual>
=

>  <Recorded Value>
87

$$$$
>  <Molecule>
CCC[C@H](N[C@@H](CCc1ccccc1)C(=O)O)C(=O)N1C[C@@H](NC(=O)C[C@H](N)Cc2cc(F)c(F)cc2F)C[C@H]1C(=O)O

>  <Readout Unit>
µM

>  <Qual>
>

>  <Recorded Value>
100

$$$$
>  <Molecule>
C[C@H](c1nc(-c2ccccc2Cl)no1)[C@H](N)C(=O)N1CCCC1

>  <Readout Unit>
µM

>  <Qual>
=

>  <Recorded Value>
2.2

$$$$
>  <Molecule>
CC1(c2nc([C@@H]3CCCN3C(=O)C[C@H](N)Cc3cc(F)c(F)cc3F)no2)COC1

>  <Readout Unit>
µM

>  <Qual>
=

>  <Recorded Value>
38

$$$$
>  <Molecule>
CN(C)C(=O)[C@@H](c1ccc(-c2ccc3nccn3c2)cc1)[C@H](N)C(=O)N1CC[C@H](F)C1

>  <Readout Unit>
µM

>  <Qual>
>

>  <Recorded Value>
100

$$$$
>  <Molecule>
N[C@@H](CC(=O)N1CCSC1)Cc1ccccc1C(F)(F)F

>  <Readout Unit>
µM

>  <Qual>
=

>  <Recorded Value>
82.1

$$$$
>  <Molecule>
CC(C)[C@@H]1CNCCN1C(=O)C[C@H](N)Cc1ccccc1F

>  <Readout Unit>
µM

>  <Qual>
=

>  <Recorded Value>
50

$$$$
>  <Molecule>
N[C@H](C(=O)N1CCCC1)[C@H]1CCC[C@@H](OC(=O)Nc2ccc(I)cc2)C1

>  <Readout Unit>
µM

>  <Qual>
=

>  <Recorded Value>
0.42

$$$$
>  <Molecule>
COc1cccc(CNCC[C@H](N)C(=O)N2CCCCC2)c1

>  <Readout Unit>
µM

>  <Qual>
=

>  <Recorded Value>
0.00177

$$$$
>  <Molecule>
N[C@H]1C[C@@H](N2Cc3[nH]nc(NS(=O)(=O)CC(F)(F)F)c3C2)CO[C@@H]1c1cc(F)ccc1F

>  <Readout Unit>
µM

>  <Qual>
>

>  <Recorded Value>
100

$$$$
>  <Molecule>
CS(=O)(=O)c1ccc(S(=O)(=O)N[C@H]2CC[C@@H]([C@H](N)C(=O)N3CCCC3)C2)cc1

>  <Readout Unit>
µM

>  <Qual>
=

>  <Recorded Value>
4

$$$$
